Recorded IC50, one value per entry.
measuredOn: HO-1 (rat spleen) (Rattus norvegicus, UniProt P06762)
Construct: Spleen microsomes were used as a source of HO-1; from tissue; host or cells: spleen microsomal fraction of adult male Sprague-Dawley rats
Sequence (P06762 whole entry): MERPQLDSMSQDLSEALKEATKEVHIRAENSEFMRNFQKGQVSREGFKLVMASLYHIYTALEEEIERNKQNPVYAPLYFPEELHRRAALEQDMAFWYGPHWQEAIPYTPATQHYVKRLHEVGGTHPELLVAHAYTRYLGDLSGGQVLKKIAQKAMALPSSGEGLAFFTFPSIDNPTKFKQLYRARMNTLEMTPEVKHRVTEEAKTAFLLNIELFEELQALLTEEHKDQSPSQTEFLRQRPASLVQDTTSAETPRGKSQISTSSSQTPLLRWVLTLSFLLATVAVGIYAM
methodSummary: HO enzymatic activity in rat spleen microsomal fraction (CO formed from methemalbumin, gas chromatography)
Format: biochemical
reportedConditions: rat spleen microsomes; average ± standard deviation of replicate experiments; read-out: IC50 HO-1 (rat spleen)/μM
Structures can show the parent of a compound that is named as a salt.
resultType: IC50

1) COc1ccc(CCN2CCC(Nc3nc4cc(Cl)c(Cl)cc4n3Cc3ccc(F)cc3)CC2)cc1 : > 100 µM
2) CSc1ncnn1CC(=O)CCc1ccccc1 [hydrochloride] : > 100 µM
3) CS(=O)(=O)c1nnnn1CC(=O)CCc1ccccc1 : > 100 µM
4) [N-]=[N+]=NCC(=O)c1ccc(Br)cc1 : > 100 µM
5) CC(=O)CCc1ccc(Br)cc1 : > 100 µM
6) O=C(CCc1ccccc1)Cn1nc(Br)nc1Br : > 100 µM

====

Recorded pIC50, one value per entry.
measuredOn: HO-1 (rat spleen) (Rattus norvegicus, UniProt P06762)
Construct: Spleen microsomes were used as a source of HO-1; from tissue; host or cells: spleen microsomal fraction of adult male Sprague-Dawley rats
methodSummary: HO enzymatic activity in rat spleen microsomal fraction (CO formed from methemalbumin, gas chromatography)
Type: biochemical
pIC50: −log10 of the molar value. Counter-ions that a name gives are not always drawn.
resultType: pIC50

1) CC(O)C(Cc1ccc(Cl)cc1)n1ccnc1 (racemic) [hydrochloride] : 4.40
2) CC(C(=O)c1ccccc1)n1ccnc1 (racemic) [hydrochloride] : 4.31
3) Cc1ccc(S(=O)(=O)OC[C@H]2CO[C@](CCc3ccc(Cl)cc3)(Cn3ccnc3)O2)cc1 : 4.77
4) Cc1ccc(S(=O)(=O)OC[C@@H]2CO[C@@](CCc3ccc(Cl)cc3)(Cn3ccnc3)O2)cc1 : 5.22
